tested-target: Large subunit-rSCFV5 fusion protein
Sequence (chain, as listed by the source): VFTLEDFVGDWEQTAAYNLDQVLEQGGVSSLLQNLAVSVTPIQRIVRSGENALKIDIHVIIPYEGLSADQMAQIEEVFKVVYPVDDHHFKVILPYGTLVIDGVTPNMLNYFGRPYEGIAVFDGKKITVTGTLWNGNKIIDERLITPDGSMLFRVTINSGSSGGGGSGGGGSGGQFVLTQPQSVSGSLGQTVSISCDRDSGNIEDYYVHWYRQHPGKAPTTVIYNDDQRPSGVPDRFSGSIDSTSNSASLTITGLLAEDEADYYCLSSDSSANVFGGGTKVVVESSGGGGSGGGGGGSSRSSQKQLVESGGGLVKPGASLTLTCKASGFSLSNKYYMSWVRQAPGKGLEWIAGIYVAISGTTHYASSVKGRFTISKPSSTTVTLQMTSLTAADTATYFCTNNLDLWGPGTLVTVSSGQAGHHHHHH
method-summary: cell-based or functional assay
observed-property: RLU, PCT- (RLU)

As a guide, the following entries are already answered.
query: What does the data say about its RLU, PCT-? Entry: VEGWRLFDRVS (peptide, part only; not given: rSCFV18 scFv part, part only) [rSCFV18-small subunit mutant fusion protein RC-237]
result: 2190

query: Do the same for VSGYRLFDRKW (peptide, part only; not given: rSCFV18 scFv part, part only) [rSCFV18-small subunit mutant fusion protein RC-033] please
result: 820

query: Do the same for VSGYRLFDKKW (peptide, part only; not given: rSCFV18 scFv part, part only) [rSCFV18-small subunit mutant fusion protein RC-261] please
result: 1620

A. VEGYRLFDKKW (peptide, part only; not given: rSCFV18 scFv part, part only) [rSCFV18-small subunit mutant fusion protein RB239]
B. VSGWRIFDRKS (peptide, part only; not given: rSCFV18 scFv part, part only) [rSCFV18-small subunit mutant fusion protein RC-041]
C. VEGYRLFNKEW (peptide, part only; not given: rSCFV18 scFv part, part only) [rSCFV18-small subunit mutant fusion protein RB284]
query: Sequence the entries by RLU, PCT-, beginning with the highest number. Provide the labels, sequenced as the question asks.
result: B, A, C
(B: 2500 RLU, A: 465 RLU, C: 302 RLU)

Measured values drawn from patent EP4700040A1 for this set.
